molecular target: human D2L receptors (Homo sapiens, UniProt P14416); assay: Competition kinetic binding with PPHT-red tracer (TR-FRET, Motulsky-Mahan); settings: dissociation half-life from k off
Sequence (P14416 whole entry): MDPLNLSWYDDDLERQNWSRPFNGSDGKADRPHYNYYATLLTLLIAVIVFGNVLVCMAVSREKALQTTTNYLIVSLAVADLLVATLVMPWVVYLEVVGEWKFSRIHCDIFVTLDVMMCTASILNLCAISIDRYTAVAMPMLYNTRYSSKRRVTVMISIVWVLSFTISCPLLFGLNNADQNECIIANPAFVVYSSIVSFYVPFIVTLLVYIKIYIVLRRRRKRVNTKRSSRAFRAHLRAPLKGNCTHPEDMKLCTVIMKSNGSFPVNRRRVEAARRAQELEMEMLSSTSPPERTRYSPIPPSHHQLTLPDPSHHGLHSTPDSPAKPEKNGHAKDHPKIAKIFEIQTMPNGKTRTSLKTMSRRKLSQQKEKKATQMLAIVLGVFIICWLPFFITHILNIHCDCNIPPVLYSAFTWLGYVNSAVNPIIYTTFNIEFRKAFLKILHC
Structures can show the parent of a compound that is named as a salt.
Field: class. Source value: t 1/2. Ranges: one = under 0.8 min, two = from 0.8 min up to 3 min, three = 3 min and over

Reference set (3 entries):
- CN1CCN(C2=Nc3ccccc3Oc3ccc(Cl)cc32)CC1 [Loxapine, loxapine succinate]: one
- OCCN1CCN(CCCN2c3ccccc3Sc3ccc(C(F)(F)F)cc32)CC1 [Fluphenazine, fluphenazine dihydrochloride]: three
- O=C(CCCN1CC=C(n2c(=O)[nH]c3ccccc32)CC1)c1ccc(F)cc1: two

Q: Form field 'band' for CNc1cc(OC)c(C(=O)NC2CCN(Cc3ccccc3)C2C)cc1Cl (centres unmarked) [Nemonapride, nemonapride]
A: three

Q: Form field 'band' for CN1CCN(CCCN2c3ccccc3Sc3ccc(C(F)(F)F)cc32)CC1 [Trifluoperazine, trifluoperazine dihydrochloride]
A: three

Q: Form field 'band' for CN1CC2c3ccccc3Oc3ccc(Cl)cc3C2C1 (centres unmarked) [Asenapine, asenapine maleate]
A: one

* * *

Structures can show the parent of a compound that is named as a salt.
Below are pKi values recorded for human D2L receptors (Homo sapiens, UniProt P14416).
In simple prose, pKi is minus the logarithm base ten of a concentration in moles per litre.

Worked cases, answers included:
- OCCN1CCN(CCCN2c3ccccc3Sc3ccc(Cl)cc32)CC1 [Perphenazine, perphenazine]: 9.53
- Cc1nc2n(c(=O)c1CCN1CCC(c3noc4cc(F)ccc34)CC1)CCCC2O (stereo not drawn) [Paliperidone, paliperidone]: 8.54
- OCCN1CCN(CCC=C2c3ccccc3Sc3ccc(C(F)(F)F)cc32)CC1 [Flupenthixol, flupenthixol dihydrochloride]: 9.68
- CCc1c(C)[nH]c2c1C(=O)C(CN1CCOCC1)CC2 (stereo not drawn) [Molindone, molindone hydrochloride]: 7.57
- O=C(CCCN1CC=C(n2c(=O)[nH]c3ccccc32)CC1)c1ccc(F)cc1 [Droperidol, droperidol]: 9.99

Continue with the next compound.
Q: For human D2L receptors (Homo sapiens, UniProt P14416), provide pKi of CN1CCN(CCCN2c3ccccc3Sc3ccc(C(F)(F)F)cc32)CC1 [Trifluoperazine, trifluoperazine dihydrochloride] please.
A: 9.48

* * *

biological target: human D2L receptors (Homo sapiens); assay: Competition kinetic binding with PPHT-red tracer (TR-FRET, Motulsky-Mahan); conditions: dissociation half-life from k off
Counter-ions that a name gives are not always drawn.
Measured property: t 1/2 (min)
Numeric answer only, unit min assumed.

* CN(C)CCOC1=Cc2ccccc2Sc2ccc(Cl)cc21 [Zotepine, zotepine] | 0.49
* O=C1NCCN1CCN1CCC(c2cn(-c3ccc(F)cc3)c3ccc(Cl)cc23)CC1 | 1.17
* OCCN1CCN(CCCN2c3ccccc3Sc3ccc(Cl)cc32)CC1 | 3.01
* CCN1CCC[C@H]1CNC(=O)c1c(O)c(Cl)cc(Cl)c1OC [Raclopride, raclopride] | 1.31
* O=C(CCCN1CCC2(CC1)C(=O)NCN2c1ccccc1)c1ccc(F)cc1 | 18.24

Q: Report t 1/2 for O=C1Cc2cc(CCN3CCN(c4nsc5ccccc45)CC3)c(Cl)cc2N1 [Ziprasidone, ziprasidone hydrochloride monohydrate] please.
A: 0.65

Q: Report t 1/2 for CCc1c(C)[nH]c2c1C(=O)C(CN1CCOCC1)CC2 (centres unmarked) [Molindone, molindone hydrochloride] please.
A: 0.41

Q: Report t 1/2 for Cc1nc2n(c(=O)c1CCN1CCC(c3noc4cc(F)ccc34)CC1)CCCC2O (centres unmarked) please.
A: 1.58

Each recorded value in this set is attributed to paper PMC5624946.
